Catalogue of GI50 readings, one per entry.
Test system: RPMI-8226
Test: NCI tumour cell line growth inhibition, 48 h
Activity calls are given as the source filed them. Cut-off read from the data, not from the text of the source: active = GI50 up to about 1.1 µM and inactive = higher.
quantity measured: GI50

- molecule: "CCOC(=O)C1=C(N)N(c2ccccc2)/C(=C2\\SC(=S)N(c3ccc(C)cc3)C2=O)S1"
  quantity measured: "GI50"
  meas value: "93.1 µM (inactive)"
- molecule: "CC(NC(=O)/C(=C/c1ccccc1)NC(=O)c1ccccc1)C(=O)O (stereo not given)"
  quantity measured: "GI50"
  meas value: "> 100 µM (inactive)"
- molecule: "COC(=O)CCC(=O)NC1=C(Nc2ccc(OC)cc2)C(=O)c2ccccc2C1=O"
  quantity measured: "GI50"
  meas value: "15.7 µM (inactive)"
- molecule: "COc1cccc(-c2cc(O)c3cc(NC(C)=O)ccc3n2)c1"
  quantity measured: "GI50"
  meas value: "42.9 µM (inactive)"
- molecule: "Cc1cc(OCC(=O)N/N=C/C(Br)=C/c2ccccc2)nc(SCC(=O)N/N=C/C(Br)=C/c2ccccc2)n1"
  quantity measured: "GI50"
  meas value: "68.5 µM (inactive)"

* * *

Test system: M14
Experiment: NCI tumour cell line growth inhibition, 48 h
Calls of active or inactive are those of the source. Rule as the data show it: active = GI50 up to about 1.1 µM and inactive = higher.
Collected GI50 values appear next to each entry.

- molecule: "COc1ccc(/C=C2\\CN(C)C/C(=C\\c3ccc(OC)cc3)C2=O)cc1"
  GI50: "> 100 µM (inactive)"
- molecule: "O=[N+]([O-])/C(C(Cl)=C(Cl)Cl)=C1\\NCCS1"
  GI50: "46.9 µM (inactive)"
- molecule: "O=C(O)/C=C/c1c2ccc(=O)c(O)c-2oc2c(O)c(O)ccc12"
  GI50: "47.4 µM (inactive)"
- molecule: "COc1ccc2c(c1)Cc1c-2[nH]c2cc3c(cc2c1=O)OCO3"
  GI50: "14.2 µM (inactive)"
- molecule: "Clc1ccc(COC(Cn2ccnc2)c2ccc(Cl)cc2Cl)c(Cl)c1 (stereo not given) [MICONAZOLE NITRATE]"
  GI50: "10.6 µM (inactive)"

* * *

# GI50 per entry
Test system: NCI-H23
Assay: NCI tumour cell line growth inhibition, 48 h
Active and inactive are the calls of the source. No stated cut-off is given here; in the data, active = GI50 up to about 1.1 µM and inactive = higher.

- smiles text: "CCNC(=O)/C(=C/c1ccc(OC)cc1)c1cc(OC)c(OC)c(OC)c1"
  GI50: "13 µM (inactive)"
- smiles text: "CN1CCN(c2nc(N)c(Br)c(Cl)n2)CC1"
  GI50: "> 100 µM (inactive)"
- smiles text: "O=c1[nH]c2nccn2c(Cl)c1Br"
  GI50: "17.9 µM (inactive)"

* * *

System: MDA-N
Test: NCI tumour cell line growth inhibition, 48 h
The source made the active and inactive calls. No stated cut-off is given here; in the data, active = GI50 up to about 1.1 µM and inactive = higher. Where a SMILES comes first, the peptide text is derived from it. The star is where a group is joined. Boc = CC(C)(C)OC(=O)*; OBn = c1ccc(CO*)cc1
In this section, each of the molecules is paired with its reported GI50.

- molecule: "Cc1ccc(S(=O)(=O)OC2CCN(C)CC2)cc1"
  GI50: "> 100 µM (inactive)"
- molecule: "CC(C)CC(NC(=O)OC(C)(C)C)C(=O)N1CCCC1C(=O)OCc1ccccc1 (stereo not drawn) (Boc-Leu-Pro-OBn; configuration not given here)"
  GI50: "> 100 µM (inactive)"
- molecule: "COC(=O)C1ON2C(C1C(=O)OC)C(C)(C)N(O)C2(C)C (stereo not drawn)"
  GI50: "> 10 µM (inactive)"
- molecule: "C/C(=N\\NC(=S)N1CCCCC1)c1cccc(C)n1"
  GI50: "0.0871 µM (active)"
- molecule: "COC(=O)c1ccc(/N=N/N(C)COc2ccc(C#N)cc2)cc1"
  GI50: "> 100 µM (inactive)"
- molecule: "C=CCCCCCCCCCOC1C=CC(OC(C)=O)C(COC(C)=O)O1 (stereo not drawn)"
  GI50: "44.3 µM (inactive)"
- molecule: "CC(C)CC(NC(=O)C(C)(CI)Cc1ccccc1)C(=O)Nc1ccccc1 (stereo not drawn)"
  GI50: "> 100 µM (inactive)"
- molecule: "Oc1ccc(Oc2cc3c(cc2Oc2ccc(O)cc2)-c2nc-3nc3[nH]c(nc4nc(nc5[nH]c(n2)c2cc(Oc6ccc(O)cc6)c(Oc6ccc(O)cc6)cc52)-c2cc(Oc5ccc(O)cc5)c(Oc5ccc(O)cc5)cc2-4)c2cc(Oc4ccc(O)cc4)c(Oc4ccc(O)cc4)cc32)cc1"
  GI50: "> 100 µM (inactive)"

* * *

Measured GI50 of individual entries
Test system: NCI-H23
Experiment: NCI tumour cell line growth inhibition, 48 h
Calls of active or inactive are those of the source. Cut-off read from the data, not from the text of the source: active = GI50 up to about 1.1 µM and inactive = higher.
quantity measured: GI50

- molecule: "O=C1CC2CC(CC3(CO3)C2)C1F (stereo unspecified)"
  meas value: "> 100 µM (inactive)"
- molecule: "O=C(/C=C/c1ccccc1)CC(=O)CCC(=O)Nc1ccc(Cl)cc1"
  meas value: "> 100 µM (inactive)"
- molecule: "O=C(O)Cc1c(O)ccc2ccccc12"
  meas value: "> 100 µM (inactive)"
- molecule: "CC(C)NC(C)C(C)c1ccccc1 (stereo unspecified)"
  meas value: "> 100 µM (inactive)"
- molecule: "CCCCCCCCCCCCCCCCCCOP(=O)([O-])OCC[N+](C)(C)C [OCTADECYLPHOSPHONOCHOLINE]"
  meas value: "1.13 µM (inactive)"
- molecule: "Clc1ccc(COC(Cn2ccnc2)c2ccc(Cl)cc2Cl)c(Cl)c1 (stereo unspecified) [MICONAZOLE NITRATE]"
  meas value: "8.15 µM (inactive)"
- molecule: "CO[C@H]1O[C@@H]2CO[C@@H](c3ccccc3)O[C@H]2[C@@H]2CC=CCC[C@]12O"
  meas value: "36.6 µM (inactive)"
- molecule: "CC1=C(C(=O)NNC(=O)Cc2ccccc2)CC(C(=O)NNC(=O)Cc2ccccc2)=C(C)N1"
  meas value: "> 100 µM (inactive)"
- molecule: "C1COCCN1.CN(C)c1ccc(-c2c(C#N)c(N)nc(S)c2C#N)cc1"
  meas value: "60 µM (inactive)"
- molecule: "O=C(c1c(Cl)cc(Cl)cc1Cl)N(Cc1cccnc1)C(=S)N(Cc1cccnc1)C(=O)c1c(Cl)cc(Cl)cc1Cl"
  meas value: "8.67 µM (inactive)"
- molecule: "COC(=O)C1=C(OC)C(=P2(c3ccccc3)CC(c3ccccc3)=C2c2ccccc2)C(C(=O)OC)=C1C(=O)OC (stereo unspecified)"
  meas value: "33.8 µM (inactive)"
- molecule: "COC(=O)c1ccc(/N=N/N(C)COc2ccc(C#N)cc2)cc1"
  meas value: "> 100 µM (inactive)"
- molecule: "Cc1ccc(C(=O)N/N=C(\\N=N\\c2ccc(C(=O)O)cc2)c2ccc(N(CCC#N)CCC#N)cc2C)cc1"
  meas value: "> 100 µM (inactive)"
- molecule: "CC(C)(C)OC(=O)NC1CC2(C=C(Br)C(=O)C(Br)=C2)OC1=O (stereo unspecified)"
  meas value: "7.85 µM (inactive)"
- molecule: "CCCC(=O)Nc1cn(COC)c(C(=O)N2C[C@@H]3C[C@]34C2=CC(=O)c2[nH]cc(C)c24)n1"
  meas value: "2.9 µM (inactive)"
- molecule: "ClCCCN1CCN(CCCl)CC1"
  meas value: "69.8 µM (inactive)"
- molecule: "Cc1ccc2c(c1)c(=O)c1c(NCCN(C)C)ccc3nnn2c31"
  meas value: "3.6 µM (inactive)"
- molecule: "Cc1ccc(N/C(=C(/C(Cl)=C(Cl)Cl)[N+](=O)[O-])n2nnc3ccccc32)cc1"
  meas value: "21.5 µM (inactive)"
- molecule: "N=C(N)Cn1cnc2ccccc21"
  meas value: "> 100 µM (inactive)"
- molecule: "Cc1nc2cc(N)c(F)cc2[nH]1"
  meas value: "> 100 µM (inactive)"
- molecule: "CCOC(=O)C(OCC1CC=CCC1)Sc1ccccc1 (stereo unspecified)"
  meas value: "> 100 µM (inactive)"

* * *

Tested on: LOX IMVI
Experiment: NCI tumour cell line growth inhibition, 48 h
The source made the active and inactive calls. Cut-off read from the data, not from the text of the source: active = GI50 up to about 1.1 µM and inactive = higher.
Catalogue of GI50 readings, one per entry.

- compound: "O=[N+]([O-])/C(C(Cl)=C(Cl)Cl)=C1\\NCCS1"
  GI50: "20.1 µM (inactive)"
- compound: "Nc1ccn(CCO)c(=O)n1"
  GI50: "> 100 µM (inactive)"
- compound: "c1ccc(OC2=NC3=S(S2)SC(Oc2ccccc2)=N3)cc1"
  GI50: "19.6 µM (inactive)"
- compound: "O=C(CCC(=O)Nc1ccc(Cl)cc1)CC(=O)c1ccc2ccccc2c1"
  GI50: "> 100 µM (inactive)"
- compound: "COc1ccc(SC(C)(SC)c2ccccn2)c(OC)n1 (stereo unspecified)"
  GI50: "72.1 µM (inactive)"
- compound: "O=C(O)/C=C/C=C/c1ccc2c(c1)OCO2 [PIPERIC ACID]"
  GI50: "> 100 µM (inactive)"
